// data source = patent US20240400701A1

Target: T1, human AMHRII (anti-Mullerian hormone receptor type 2) (human, UniProt Q16671 18-573)
T1 construct: whole, on cells; also called AMHR2; human AMHR2
T1 sequence (looked up): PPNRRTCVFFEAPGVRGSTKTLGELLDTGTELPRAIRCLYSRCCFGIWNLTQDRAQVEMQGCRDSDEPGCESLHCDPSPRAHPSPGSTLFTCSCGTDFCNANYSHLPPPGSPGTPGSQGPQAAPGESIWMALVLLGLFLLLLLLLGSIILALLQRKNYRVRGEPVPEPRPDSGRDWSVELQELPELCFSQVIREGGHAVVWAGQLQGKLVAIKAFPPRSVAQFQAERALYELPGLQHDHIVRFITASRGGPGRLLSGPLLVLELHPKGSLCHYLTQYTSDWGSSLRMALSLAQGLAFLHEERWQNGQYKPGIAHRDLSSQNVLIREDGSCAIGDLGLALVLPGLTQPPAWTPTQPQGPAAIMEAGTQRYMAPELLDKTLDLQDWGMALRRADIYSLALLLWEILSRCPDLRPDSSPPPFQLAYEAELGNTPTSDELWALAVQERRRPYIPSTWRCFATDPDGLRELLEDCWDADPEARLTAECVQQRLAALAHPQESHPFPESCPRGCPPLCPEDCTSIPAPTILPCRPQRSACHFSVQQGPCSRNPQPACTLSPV
Assay: FACS on CHO-K1 cells over-expressing human AMHR2

BINDER: 108F3D1E9 H3L2 hIgG1 (antibody, V domains shown, Humanized, human IgG1; also called 108F3D1E9 H3L2 hlgG1) VH: QVQLQESGPGLVKPSETLSLTCTVSGYSITSDFAWNWIRQFPGKGLEWMGYISFSGSTSYNPSLKSRITISRDTSKNQFSLKLSSVTAADTAVYYCAGSRYSWFAYWGQGTLVTVSS VL: DIQLTQSPSSLSASVGDRVTITCRASESVDTYGNSFMHWYQQKPGKPPKLLIYRASNLESGIPSRFSGSGSGTDFTLTISSLQPEDFATYYCQQSNEDPYTFGGGTKVEIK
Top (MFI): 64600

BINDER: 108F3D1E9 H4L3 hIgG1 (antibody, V domains shown, Humanized, human IgG1; also called 108F3D1E9 H4L3 hlgG1) VH: QVQLQESGPGLVKPSETLSLTCTVSGYSITSDFAWNWIRQFPGKGLEWMGYISFSGSTSYNPSLKSRITISRDTSKNQFFLQLSSVTAEDTAVYYCAGSRYSWFAYWGQGTLVTVSS VL: DIVLTQSPSSLSASVGDRVTITCRASESVDTYGNSFMHWYQQKPGQPPKLLIYRASNLESGIPARFSGSGSGTDFTLTISSVQPEDFATYYCQQSNEDPYTFGGGTKVEIK
Top (MFI): 67300
